assayedTarget: T1, MYOF peptide complexed with HLA-A*02:01 on T2 cells (human)
T1 construct: whole, on cells
measurementProtocol: flow cytometry, peptide-loaded T2 cells;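 further: binding of single-chain Fv antibody constructs, raised in XenoMouse, to peptide-pulsed T2 cells measured by flow cytometry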
readoutKind: Signal/background
Just the number, please.

18179-A7 (scFv, scFv in bacterial lysate, detected with anti-Flag M2) scFv: EVQLLESGGGLVKPGGSLRLSCAASGFTFSNAWMSWVRQAPGKGLEWVGRIKGNTYGGTTDYAAPVKGRFTISRDDSKNTLFLQMNSLKTEDTAVYYCTTPSYSGSYYNYFSVMDVWGQGTTVTVSSGGGGSGGGGSGGGGSELVMTQSPSSLSASVGDRVTITCRTSQSISSYLNWYQQKPGRAPKLLIFAASSLQGGVPSRFSGSGSGTDFTLTISSLQPEDFATYYCQQTYSMPFTFGPGTKVDIK
1
18182-G6 (scFv, scFv in bacterial lysate, detected with anti-Flag M2) scFv: EVQLLESGGGLVQPGGSLRLSCAASGFTFSSYAMSWVRQAPGKGLEWVSAISGSGGGTYYADSVKGRFTISRDNSKNTLYLQMNSLRAEDTAAYYCVTGKGVHLGFDYWGQGTLVTVSSGGGGSGGGGSGGGGSELVLTQPPSVSVAPGQTARITCGGNNIGSKSVHWHQQKPGQSPVLVIYDDNDRPSGIPERFSGFNSGNTATLTISRVEAGDEADYYCQVWDSSSDHVVFGGGTKLTVL
1
18182-H9 (scFv, scFv in bacterial lysate, detected with anti-Flag M2) scFv: EVQLLESGGGLVQPGGSLRLSCAASGFTFSSHAMSWVRQAPGKGLEWVSAISGSGGGTYYADSVKARFTISRDNSKNTLYLQMNSLRAEDTAVYYCATGKGVHLGFDYWGQGTLVTVSSGGGGSGGGGSGGGGSELVLTQPPSVSVAPGQTARITCGGNNIGSKSVHWHQQKPGQAPVLVVYDDNDRPSGIPERFSGSNSGNTATLTISRVEAGDEADFYCQVWDSSSDHVVFGGGTKLTVL
1.1
18089-C9 (scFv, scFv in bacterial lysate, detected with anti-Flag M2) scFv: EVQLLESGPTLVKPTQTLTLTCTFSGFSFTTHKMGVDWIRQPPGKALEWLALIYWNDDKRYSPSLQSRLTITKDTSKNQVVLTMTNMDPVDTATYYCAYRRYNWNYENWFDPWGQGTLVTVSSGGGGSGGGGSGGGGSELQMTQSPSSLSASVGDRVTITCRASQFISSYLNWYQQKPGKAPKLLIYAASSLQSGVPSRFSGRGSGTDFTLTISSLQPEDFATYYCQQSYSTPFTFGPGTKVEIK
1
18179-B12 (scFv, scFv in bacterial lysate, detected with anti-Flag M2) scFv: EVQLLESGGGLVQPGGSLRLSCAASGFTFSNAWMSWVRQAPGKGLEWVGRIKGNTYGGTTDYAAPVKGRFTISRDDSKNTLFLQMNSLKTEDTAVYYCTTPSNSGSYYNYFSVMDVWGQGTTVTVSSGGGGSGGGGSGGGGSELVMTQSPSSLSASVGDRVTITCRTSQSISSYLNWFQQKPGKAPKLLIFAASSLQSGVPSRFSGSGSGTDFTLTISSLQPEDFATYYCQQTYSMPFTFGPGTKVEIK
1

Now for the binder whose Signal/background we want.
binder 18181-F1 (scFv, scFv in bacterial lysate, detected with anti-Flag M2) scFv: EVQLLESGGGLVKPGGSLRLSCAASGFTFSNAWMSWVRQAPGKGLEWVGRIKGNTYGGTTDYAAPVKGRFTISRDDSKNTLFLQMNSLKTEDTAVYYCTTPSYSGSYYNYFSVMDVWGQGTTVTVSSGGGGSGGGGSGGGGSELVMTQSPSSLSASVGDRVTITCRTSQSISSYLNWYQQKPGRAPKLLIFAASSLQGGVPSRFSGSGSGTDFTLTISSLQPEDFATYYCQQTYSSPFTFGPGTKLEIK , Signal/background observed: 1.1
